- assayedSystem: human TASK-1 (Homo sapiens, UniProt O14649)
- Sequence (O14649 whole entry): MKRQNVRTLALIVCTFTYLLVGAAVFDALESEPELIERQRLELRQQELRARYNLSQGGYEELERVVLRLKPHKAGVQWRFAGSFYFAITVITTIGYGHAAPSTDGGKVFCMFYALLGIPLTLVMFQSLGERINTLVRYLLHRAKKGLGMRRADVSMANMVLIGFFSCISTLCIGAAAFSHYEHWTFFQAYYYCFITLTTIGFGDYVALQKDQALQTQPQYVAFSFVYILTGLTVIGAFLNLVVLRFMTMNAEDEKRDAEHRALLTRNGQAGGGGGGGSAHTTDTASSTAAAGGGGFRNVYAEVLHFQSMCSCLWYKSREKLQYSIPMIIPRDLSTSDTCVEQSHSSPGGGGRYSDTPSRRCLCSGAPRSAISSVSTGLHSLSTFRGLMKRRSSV
- assayOverview: Inhibition of recombinant TASK-1 in stably transfected CHO cells, KCl-induced depolarization, voltage-sensitive dye (B-2)
- Type: cell-based
- Design: expressed in transfected cells; host or cells: stably transfected CHO cells
- condition: depolarization induced by 40 mM potassium chloride, some mean values from multiple determinations
pIC50: −log10 of the molar value.
endpoint: pIC50

# compound, resultValue
data = [
    ("Cc1nc(C(=O)N2C3CCC2CN(Cc2c(-c4ccc(Cl)cc4)nc4ccccn24)C3)sc1C [Example 150]", 5.57),
    ("O=C(C1CCCCC1)N1C2CC1CN(Cc1c(-c3ccc(Cl)cc3)nc3ccccn13)C2 [Example 118]", 6.07),
    ("O=C(c1cccc(Cl)c1)N1CC2CCC1CN2Cc1c(-c2ccc(Cl)cc2)nc2ccccn12 (single isomer, unassigned) [Example 49]", 6.13),
    ("COc1cccc(C(=O)N2C3CCC2CN(Cc2c(-c4ccc(Br)cc4)nc4ccccn24)C3)c1 [Example 99]", 6.33),
    ("O=C(c1cccc(OC(F)(F)F)c1)N1C2COCC1CN(Cc1c(-c3ccc(Cl)cc3)nc3ccccn13)C2 [Example 72]", 5.70),
    ("COc1ccccc1C(=O)N1CC2CCC1CN2Cc1c(-c2ccc(Cl)cc2)nc2ccccn12 (single isomer, unassigned) [Example 44]", 6.89),
    ("CC(C)(C)OC(=O)N1C2CCC1CN(Cc1c(-c3ccc(Br)cc3)nc3ccccn13)C2 [Example 11]", 5.85),
]

* * *

Readings of IC50 for the listed molecules
- assayedSystem: human TASK-1 (Homo sapiens, UniProt O14649)
- assayOverview: Inhibition of recombinant TASK-1 in stably transfected CHO cells, KCl-induced depolarization, voltage-sensitive dye (B-2)
- Assay type: cell-based
- Parameters: expressed in transfected cells; host or cells: stably transfected CHO cells
- condition: depolarization induced by 40 mM potassium chloride, some mean values from multiple determinations

# molecule, IC50 [nM]
measured = [
    ("Cn1ccnc1C(=O)N1CC2CCC1CN2Cc1c(-c2ccc(Cl)cc2)nc2ccccn12 (single isomer, unassigned) [Example 52]", 170),
    ("CCN(C(=O)N1C2COCC1CN(Cc1c(-c3ccc(Cl)cc3)nc3ccccn13)C2)C1CCCCC1 [Example 191]", 9500),
    ("COc1ccc(F)cc1C(=O)N1C2CCC1CN(Cc1c(-c3ccc(Cl)cc3)nc3ccccn13)C2 [Example 103]", 540),
    ("O=C(c1cccc(OC(F)F)n1)N1CC2CCC1CN2Cc1c(-c2ccc(Cl)cn2)nc2ccccn12 (single isomer, unassigned; enantiomer 1) [Example 200]", 877),
]

* * *

- assayedSystem: human TASK-3 (Homo sapiens, UniProt Q9NPC2)
- Sequence (Q9NPC2 whole entry): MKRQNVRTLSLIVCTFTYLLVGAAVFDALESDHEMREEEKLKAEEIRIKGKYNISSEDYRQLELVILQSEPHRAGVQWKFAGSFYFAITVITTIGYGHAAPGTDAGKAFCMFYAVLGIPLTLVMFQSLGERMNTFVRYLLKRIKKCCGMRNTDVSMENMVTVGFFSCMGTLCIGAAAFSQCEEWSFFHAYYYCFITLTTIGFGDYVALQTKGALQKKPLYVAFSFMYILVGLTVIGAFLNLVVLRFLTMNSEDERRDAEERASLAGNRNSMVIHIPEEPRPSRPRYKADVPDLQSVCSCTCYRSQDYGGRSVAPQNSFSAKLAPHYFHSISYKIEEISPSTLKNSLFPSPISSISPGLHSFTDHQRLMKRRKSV
- assayOverview: Inhibition of recombinant TASK-3 in stably transfected CHO cells, KCl-induced depolarization, voltage-sensitive dye (B-2)
- Format: cell-based
- Parameters: expressed in transfected cells; host or cells: stably transfected CHO cells
- condition: depolarization induced by 40 mM potassium chloride, some mean values from multiple determinations
endpoint: log10(IC50) (log10 of the value in nM)

# compound, log10(IC50)
measured = [
    ("COc1ccc(F)c(C(=O)N2CC3CCC2CN3Cc2c(-c3ccc(Cl)cn3)nc3ccccn23)n1 (single isomer, unassigned) [Example 66]", 2.04),
    ("O=C(c1cc(F)ccc1Cl)N1CC2CCC1CN2Cc1c(-c2ccc(Cl)cc2)nc2ccccn12 (single isomer, unassigned)", 0.59),
    ("CC(C)c1cccc(C(=O)N2C3COCC2CN(Cc2c(-c4ccc(Cl)cc4)nc4ccccn24)C3)c1", 1.15),
    ("Cc1ccc(F)cc1C(=O)N1CC2CCC(C1)N2Cc1c(-c2ccc(Cl)cc2)nc2ccccn12", 2.32),
    ("O=C(N1CCSCC1)N1C2CCC1CN(Cc1c(-c3ccc(Cl)cc3)nc3ccccn13)C2", 1.41),
    ("O=C(c1cccc(OCC(F)(F)F)n1)N1C2COCC1CN(Cc1c(-c3ccc(Cl)cc3)nc3ccccn13)C2", 1.64),
    ("O=C(C1CCCC1)N1C2COCC1CN(Cc1c(-c3ccc(Cl)cc3)nc3ccccn13)C2", 1.38),
    ("O=C(c1ccccc1F)N1C2CCC1CN(Cc1c(-c3ccc(Br)cc3)nc3ccccn13)C2", 0.89),
    ("CC(C)N(C)C(=O)N1C2COCC1CN(Cc1c(-c3ccc(Cl)cc3)nc3ccccn13)C2", 2.46),
    ("CC(C)N(C(=O)N1C2CCC1CN(Cc1c(-c3ccc(Cl)cc3)nc3ccccn13)C2)C(C)C", 1.11),
    ("CC(C)N(C)C(=O)N1C2CCC1CN(Cc1c(-c3ccc(Cl)cc3)nc3ccccn13)C2", 1.23),
    ("O=C(c1ccccc1F)N1CC2CCC1CN2Cc1c(-c2ccc(Br)cc2)nc2ccccn12 (racemic)", 1.88),
    ("COc1ccccc1C(=O)N1CC2CCC1CN2Cc1c(-c2ccc(Cl)cc2)nc2ccccn12 (single isomer, unassigned)", 0.52),
    ("CN(C(=O)N1C2CCC1CN(Cc1c(-c3ccc(Cl)cc3)nc3ccccn13)C2)c1ccccc1", 1.90),
    ("O=C(C1CCCC1)N1CC2CCC(C1)N2Cc1c(-c2ccc(Br)cc2)nc2ccccn12", 1.72),
    ("CC(C)(C)OC(=O)N1C2CCC1CN(Cc1c(-c3ccc(Br)cc3)nc3ccccn13)C2", 2.97),
    ("O=C(C1CCOC1)N1C2COCC1CN(Cc1c(-c3ccc(Cl)cc3)nc3ccccn13)C2 (centres unmarked)", 1.81),
    ("CC(C)(C)OC(=O)N1CC2CCC1CN2Cc1c(-c2ccc(Cl)cc2)nc2ccccn12 (single isomer, unassigned) [Example 15]", 1.91),
    ("O=C(NC1CC1)N1C2CCC1CN(Cc1c(-c3ccc(Cl)cc3)nc3ccccn13)C2", 1.81),
    ("COc1cccc(C(=O)N2C3CCC2CN(Cc2c(-c4ccc(Cl)cn4)nc4ccccn24)C3)c1", 1.46),
    ("COc1ccc(C)c(C(=O)N2CC3CCC2CN3Cc2c(-c3ccc(Cl)cc3)nc3ccccn23)n1 (single isomer, unassigned)", 0.83),
    ("COc1ccc(Cl)c(C(=O)N2CC3CCC2CN3Cc2c(-c3ccc(Cl)cn3)nc3ccccn23)n1 (single isomer, unassigned; enantiomer 1) [Example 25]", 0.75),
    ("CCN(CC)C(=O)N1C2COCC1CN(Cc1c(-c3ccc(Cl)cc3)nc3ccccn13)C2", 0.77),
    ("O=C(c1cccc(Cl)c1)N1C2CC1CN(Cc1c(-c3ccc(Cl)cc3)nc3ccccn13)C2", 2.53),
    ("CCCCCNC(=O)N1C2CCC1CN(Cc1c(-c3ccc(Cl)cc3)nc3ccccn13)C2", 2.04),
    ("COc1cccc(C(=O)N2C3CCC2CN(Cc2c(-c4ccc(Cl)cc4)nc4ccccn24)C3)n1", 1.51),
    ("COc1ccc(Cl)c(C(=O)N2C3CCC2CN(Cc2c(-c4ccc(Br)cc4)nc4ccccn24)C3)n1", 1.26),
    ("COc1ccc(F)c(C(=O)N2CC3CCC2CN3Cc2c(-c3ccc(C(C)C)nc3)nc3ccccn23)n1 (single isomer, unassigned) [Example 126]", 2.85),
    ("COc1ccccc1C(=O)N1CC2CCC(C1)N2Cc1c(-c2ccc(Cl)cc2)nc2ccccn12", 1.95),
]

Taken from patent US20210024545A1.
